Hey, just so you know, these numbers are from patent US20250027068.

Can you tell me Enzyme Activity Endpoint Assay (purified): IgG for the items I'm about to list?
Target: pooled human IgG
Answers are plain numbers, in ng/µL.

Record excerpt, results attached:
Protein	Readout Number
PRT-129 (protein) MRNATEAYAKEVPHQITSVWTKGVTPLTPEQFRYNNEDVFHAPYLANQGWYDITKAFDGKDNLLCGAATAGNMLHWWFDQNKTEIEAYLSKHPEKQKIIFNNQELFDLKAAIDTKDSQTNSQLFNYFRDKAFPNLSARQLGVMPDLVLDMFINGYYLNVFKTQSTDVNRPYQDKDKRGGIFDAVFTRGDQTKLLTARHDLKNKGLNDISTLIKQELTEGRALALSHTYANVSISHVINLWGADFNAEGNLEAIYVTDSDANASIGMKKYFVGINAHGHVAISAKKIEGENIGAQVLGLFTLSSGKDIWQKLS	0
PRT-313 (protein) MQITSVWTKGVTPLTPEQFRENNEDVIHAPYLAHQGWYDITKAFDGKDNLLCGAATAGNMLHWWFDQNKTEIEAYLSKHPEKQKIIFGNQELFDLKAAIDTKDSQTNSQLFDYFRDKAFPNLSARQLGVMPDLVLDMFINGYYLNVGKTQSTDVNRPYQDKDKRGGIFDAVFTRGDQTTLLTARHDLKNKGLNDISTIIKQELTEGRALALSHTYANVSISHVINLWGADFNAEGELEAIYVTDSDANPSIGMKKYFVGRNAHGHVAISAKKIEGENIGAQVLGLFTLSSGKDIWQKLS	114
PRT-162 (protein) MANQEIRYSEVTPYHVTSVWTKGVTPPANFTQGEDVFHAPYVANQGWYDITKTFNGKDDLLCGAATAGNMLHWWFDQNKDQIKRYLEEHPEKQKINFNGEQMFDVKEAIDTKNSQTNSELFNYFKEKAFPYLSTKHLGVFPDHVIDMFINGYRLSLTNHGPTPVKEGSKDPRGGIFDAVFTRGDQSKLLTSRHDFKEKNLKEISDLIKKELTEGKALGLSHTYANVRINHVINLWGADFDSNGNLKAIYVTDSDSNASIGMKKYFVGVNSAGKVAISAKEIKEDNIGAQVLGLFTLSTGQDSWNQTN	0

According to the records, this protein PRT-157 (protein) MANQEIRYSEVTPYHVTSVWTKGVTPPEDFTQGEDVFHAPYKANQGWYDITKTFNGKDDLLCGAATAGNMLHWWFDQNKDQIKRYLEEHPEKQKINFNGEQMFDVKEAIDTKNHQLDSKLFEYFKEKAFPYLSTKHLGVFPDHVIDMFINGYRLSLTNHGPTPVKEGSKDPRGGIFDAVFTRGDQSKLLTSRHDFKEKNLKEISDLIKKELTEGKALGLSHTYANVRINHVINLWGADFDSNGNLKAIYVTDSDSNASIGMKKYFVGVNSAGKVAISAKEIKEDNIGAQVLGLFTLSTGQDSWNQTN displays Enzyme Activity Endpoint Assay (purified): IgG of 0
